These entries and their values trace back to paper PMC6982996.

target_or_test_system: VIM-2 (Escherichia coli)
Construct: Li's Laboratory, Sichuan University (collaborator, a gift and not a purchase)
assay_method_text: VIM-2 inhibition assay (FC5 fluorogenic substrate)
Type: biochemical
assay_conditions: @ 100 μM; mean ± SD (n = 3)
quantity: inhibition at 100 µM (%)
Value expressed in %; do not type the unit.

Some solved cases for reference:
# molecule, inhibition at 100 µM, %
rows = [
    ("CC(C)(C)c1ccc(-c2nnc3n2CCCS3)cc1 [5o]", 23),
    ("FC(F)(F)c1cccc(-c2nnc3n2CCCS3)c1 [5i]", 52),
    ("COc1ccccc1-c1nnc2n1CCCS2 [5d]", 39),
    ("c1coc(-c2nnc3n2CCCS3)c1 [10a]", 32),
]

# lookup: inhibition at 100 µM of FC(F)(F)c1ccc(-c2nnc3n2CCCS3)cc1 [5n]
82

---

Item-by-item account of inhibition at 100 µM
target_or_test_system: VIM-1 (Pseudomonas aeruginosa)
Construct: Li's Laboratory, Sichuan University (collaborator, a gift and not a purchase)
assay_method_text: VIM-1 inhibition assay (FC5 fluorogenic substrate)
Assay type: biochemical
assay_conditions: @ 100 μM; mean ± SD (n = 3)
Answer format: numeric, % implied, no suffix.

# smiles_text, measured
measured = [
    ("c1ccc(-c2nnc3n2CCCS3)cc1", 29),
    ("Clc1ccc(-c2nnc3n2CCCS3)cc1", 28),
    ("O=C(O)c1ccccc1-c1nnc2n1C(=O)CS2", 25),
]

Name the recorded inhibition at 100 µM for Fc1cccc(-c2nnc3n2CCCS3)c1 .
22

What inhibition at 100 µM value was documented for this compound, Fc1ccc(-c2nnc3n2CCCS3)cc1 ?
27

Item FC(F)(F)c1ccc(-c2nnc3n2CCCS3)cc1 has what recorded inhibition at 100 µM?
61

What value of inhibition at 100 µM has been reported for the following compound? FC(F)(F)c1cccc(-c2nnc3n2CCCS3)c1
29

Report inhibition at 100 µM for COc1ccccc1-c1nnc2n1CCCS2 please.
27

Query (compound): Brc1ccc(-c2nnc3n2CCS3)cc1 ; field requested: inhibition at 100 µM
29

Reported inhibition at 100 µM for c1ccc(-c2nnc3n2CCCS3)nc1 : what is it?
19

Bench note: what inhibition at 100 µM did Oc1ccccc1-c1nnc2n1CCCS2 show?
25

Entry c1ccc(Cc2nnc3n2CCCS3)cc1 has what inhibition at 100 µM?
25

---

System: VIM-5
assay_method_text: VIM-5 inhibition assay (FC5 fluorogenic substrate)
Type: biochemical
assay_conditions: @ 100 μM; mean ± SD (n = 3)
Catalogue of Inhibition % VIM-5 values

Solved cases below.
# molecule, Inhibition % VIM-5
measured = [
    ("CC(C)(C)c1ccc(-c2nnc3n2CCCS3)cc1", "15 ± 1/– %"),
    ("c1ccc(-c2nnc3n2CCCS3)cc1", "1 ± 1/– %"),
    ("c1csc(-c2nnc3n2CCCS3)c1 [10b]", "18 ± 2%"),
    ("Brc1ccc(-c2nnc3n2CCS3)cc1", "14 ± 2/– %"),
    ("c1coc(-c2nnc3n2CCCS3)c1 [10a]", "11 ± 1/– %"),
]

API: value(readout=Inhibition % VIM-5, system=VIM-5) for record Clc1cccc(-c2nnc3n2CCCS3)c1
−9 ± 2/– %

Under VIM-5: Inhibition % VIM-5 value of Brc1ccc(-c2nnc3n2CCCS3)cc1 ?
33 ± 2/– %

For the record Ic1ccc(-c2nnc3n2CCCS3)cc1 , what value of Inhibition % VIM-5 is listed for VIM-5?
2 ± 1/– %

Under VIM-5: Inhibition % VIM-5 value of c1ccc(-c2nnc3n2CCCS3)nc1 ?
14 ± 1/– %

Please tell me: Inhibition % VIM-5 of CC(=O)Nc1ccc(Nc2ccc(-c3nnc4n3CCCS4)cc2)cc1 , system VIM-5?
31 ± 2/– %

Form field: Inhibition % VIM-5 recorded for FC(F)(F)c1cccc(-c2nnc3n2CCCS3)c1 with VIM-5 (enter value)
21 ± 2/– %

For VIM-5, provide Inhibition % VIM-5 of FC(F)(F)c1ccc(-c2nnc3n2CCCS3)cc1 please.
−10 ± 2/– %
